- TARGET_ENTITY: PI3K (Homo sapiens)
- PROCEDURE_DETAILS: Fluorescence polarization assay for PI3K
- Assay type: biochemical
- CONDITION_CONTEXT: PI3Kα; read-out: PI3Kα IC50
pIC50: −log10 of the molar value.
MEASURED_METRIC: pIC50

Answered cases to consult:
CNC(=O)Nc1ccc(-c2nc(N3CCOCC3)c3cnn(C4CCN(C(=O)OCCOC)CC4)c3n2)cc1    6.92
O=C(Nc1ccc(-c2nc(N3CCOCC3)c3cnn(C4CCN(C(=O)c5cccnc5)CC4)c3n2)cc1)Nc1cccnc1 [Example 302]    7.49
CNC(=NC#N)Nc1ccc(-c2nc(N3CCOCC3)c3cnn(C4CCN(C(=O)c5cccnc5)CC4)c3n2)cc1 [Example 412]    6.42
CNC(=O)Nc1ccc(-c2nc(N3CCOCC3)c3cnn(C4CCC(=O)CC4)c3n2)cc1 [Example 322]    7.25
CC(C)N1CCC(n2ncc3c(N4CCOCC4)nc(-c4ccc5[nH]ccc5c4)nc32)CC1 [Compound 238]    5.43

P = CNC(=O)Nc1ccc(-c2nc(N3CCOCC3)c3cnn(C4CCN(C(=O)c5cccc(OC)c5)CC4)c3n2)cc1 [Example 364]
Q = CNC(=O)Nc1ccc(-c2nc(N3CCOCC3)c3cnn(C4CCN(Cc5cncc(F)c5)CC4)c3n2)cc1 [Example 392]
Query: Identify the item whose pIC50 is the smaller number: P or Q Respond using the label that marks the chosen record.
Result: Q

---

- TARGET_ENTITY: UniProt:P42336
- PROCEDURE_DETAILS: Fluorescence polarization assay for PI3K
- Assay type: biochemical
- CONDITION_CONTEXT: PI3Kα; read-out: PI3Kα IC50
pIC50: −log10 of the molar value.
MEASURED_METRIC: pIC50

c1ccc(CN2CCC(n3ncc4c(N5CCOCC5)nc(-c5ccc6ncccc6c5)nc43)CC2)cc1 [Compound 369]    6.33
N#CNC(=O)Nc1ccc(-c2nc(N3CCOCC3)c3cnn(C4CCN(Cc5cccnc5)CC4)c3n2)cc1 [Compound 653]    6.44
CCOC(=O)Nc1ccc(-c2nc(N3CCOCC3)c3cnn(C4CCN(C(=O)c5ccccc5)CC4)c3n2)cc1 [Compound 628]    5.80
CNC(=O)Nc1ccc(-c2nc(N3CCOCC3)c3cnn(C4CCN(Cc5cccnc5Cl)CC4)c3n2)cc1 [Example 390]    7.05
COC(=O)Nc1ccc(-c2nc(N3CCOCC3)c3cnn(C4CCN(C(=O)c5ccccc5Cl)CC4)c3n2)cc1 [Compound 688]    6.11
CCOC(=O)N1CCC(n2ncc3c(N4CCOCC4)nc(-c4ccc(NC(=O)OC)cc4)nc32)CC1    5.57

1 = CNC(=O)Nc1ccc(-c2nc(N3CCOCC3)c3cnn(C4CCN(S(C)(=O)=O)CC4)c3n2)cc1
2 = CNCC(=O)N1CCC(n2ncc3c(N4CCOCC4)nc(-c4ccc5[nH]ccc5c4)nc32)CC1
Query: Consider 1 and 2 . Which of these has its pIC50 at a higher number? Your choice should be expressed through its label.
Result: 1
(1: 7.11, 2: 6.35)

1 = CCNC(=O)Nc1ccc(-c2nc(N3CCOCC3)c3cnn(C4CCN(C(=O)C(C)C)CC4)c3n2)cc1
2 = CNC(=O)Nc1ccc(-c2nc(N3CCOCC3)c3cnn(C4CCN(Cc5ccc(F)nc5)CC4)c3n2)cc1 [Example 387]
Query: // which entry reports the smaller pIC50, 1 or 2 ? # respond with the chosen item's label
Result: 1

1 = c1cc2cc(-c3nc(N4CCOCC4)c4cnn(C5CCC(N6CCCC6)CC5)c4n3)ccc2[nH]1 (stereo not drawn)
2 = COC(=O)N1CCC(n2ncc3c(N4CCOCC4)nc(-c4ccc(NC(=O)OCCCO)cc4)nc32)CC1
Query: Between 1 and 2 , which one has the lower reported pIC50 value? I would appreciate it if you answered with the label of your choice.
Result: 2

---

- TARGET_ENTITY: PI3K (Homo sapiens)
- PROCEDURE_DETAILS: Fluorescence polarization assay for PI3K
- Assay type: biochemical
- CONDITION_CONTEXT: PI3Kα; read-out: PI3Kα IC50
MEASURED_METRIC: IC50 (nM)

Example cases with answers are listed next.
CNC(=O)Nc1ccc(-c2nc(N3CCOCC3)c3cnn(C4CCN(C(=O)c5ccc(F)cc5)CC4)c3n2)cc1 [Example 361]    108
CNC(=O)Nc1ccc(-c2nc(N3CCOCC3)c3cnn(C4CCN(C(=O)c5cccnc5Cl)CC4)c3n2)cc1 [Compound 669]    100
O=C(NCCF)Nc1ccc(-c2nc(N3CCOCC3)c3cnn(C4CCNCC4)c3n2)cc1 [Compound 774]    436

P = CNC(=O)Nc1ccc(-c2nc(N3CCOCC3)c3cnn(C4CCCCO4)c3n2)cc1 (stereo not shown) [Compound 935]
Q = O=C(CCl)N1CCC(n2ncc3c(N4CCOCC4)nc(-c4ccc5[nH]ccc5c4)nc32)CC1 [Compound 93]
R = COC(=O)N1CCC(n2ncc3c(N4CCOCC4)nc(-c4ccc(NC(=O)Nc5ccc(CCNCCN(C)C)cc5)cc4)nc32)CC1 [Compound 919]
S = C#CCNC(=O)Nc1ccc(-c2nc(N3CCOCC3)c3cnn(C4CCN(Cc5ccccc5)CC4)c3n2)cc1 [Compound 557]
Query: Provide the items ranked by increasing IC50. Form entry: labels listed in requested order.
Result: R, P, S, Q
(R: 8 nM, P: 118 nM, S: 173 nM, Q: 337 nM)

---

- TARGET_ENTITY: PI3K (Homo sapiens, UniProt P42336)
- Sequence (P42336 whole entry): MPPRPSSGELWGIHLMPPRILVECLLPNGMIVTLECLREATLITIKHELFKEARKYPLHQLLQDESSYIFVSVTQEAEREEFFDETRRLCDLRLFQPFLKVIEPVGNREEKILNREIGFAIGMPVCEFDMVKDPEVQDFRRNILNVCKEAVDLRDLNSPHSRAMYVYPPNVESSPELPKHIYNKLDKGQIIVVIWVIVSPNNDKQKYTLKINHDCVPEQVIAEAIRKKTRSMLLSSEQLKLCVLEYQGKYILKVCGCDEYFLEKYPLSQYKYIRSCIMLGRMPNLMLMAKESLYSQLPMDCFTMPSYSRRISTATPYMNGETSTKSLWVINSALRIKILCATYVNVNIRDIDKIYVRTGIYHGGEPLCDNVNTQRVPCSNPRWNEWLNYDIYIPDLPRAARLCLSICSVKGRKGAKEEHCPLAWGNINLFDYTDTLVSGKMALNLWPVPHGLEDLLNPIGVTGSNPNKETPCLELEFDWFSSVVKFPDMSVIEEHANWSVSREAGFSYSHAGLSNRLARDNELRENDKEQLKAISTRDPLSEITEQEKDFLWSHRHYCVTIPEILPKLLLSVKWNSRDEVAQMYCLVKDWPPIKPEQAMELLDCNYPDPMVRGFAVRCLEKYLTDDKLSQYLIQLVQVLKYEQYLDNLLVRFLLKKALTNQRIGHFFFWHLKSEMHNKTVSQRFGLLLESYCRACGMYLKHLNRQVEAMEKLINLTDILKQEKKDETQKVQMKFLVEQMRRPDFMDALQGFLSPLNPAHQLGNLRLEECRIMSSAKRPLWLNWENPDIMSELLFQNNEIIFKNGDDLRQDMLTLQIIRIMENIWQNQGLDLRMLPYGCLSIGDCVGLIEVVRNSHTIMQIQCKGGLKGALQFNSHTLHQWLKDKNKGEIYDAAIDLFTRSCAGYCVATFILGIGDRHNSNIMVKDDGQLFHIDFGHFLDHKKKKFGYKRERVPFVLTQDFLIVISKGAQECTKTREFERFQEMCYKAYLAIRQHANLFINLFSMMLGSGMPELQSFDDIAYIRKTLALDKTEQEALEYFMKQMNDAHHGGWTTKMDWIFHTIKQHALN
- Sequence (P27986 whole entry partner): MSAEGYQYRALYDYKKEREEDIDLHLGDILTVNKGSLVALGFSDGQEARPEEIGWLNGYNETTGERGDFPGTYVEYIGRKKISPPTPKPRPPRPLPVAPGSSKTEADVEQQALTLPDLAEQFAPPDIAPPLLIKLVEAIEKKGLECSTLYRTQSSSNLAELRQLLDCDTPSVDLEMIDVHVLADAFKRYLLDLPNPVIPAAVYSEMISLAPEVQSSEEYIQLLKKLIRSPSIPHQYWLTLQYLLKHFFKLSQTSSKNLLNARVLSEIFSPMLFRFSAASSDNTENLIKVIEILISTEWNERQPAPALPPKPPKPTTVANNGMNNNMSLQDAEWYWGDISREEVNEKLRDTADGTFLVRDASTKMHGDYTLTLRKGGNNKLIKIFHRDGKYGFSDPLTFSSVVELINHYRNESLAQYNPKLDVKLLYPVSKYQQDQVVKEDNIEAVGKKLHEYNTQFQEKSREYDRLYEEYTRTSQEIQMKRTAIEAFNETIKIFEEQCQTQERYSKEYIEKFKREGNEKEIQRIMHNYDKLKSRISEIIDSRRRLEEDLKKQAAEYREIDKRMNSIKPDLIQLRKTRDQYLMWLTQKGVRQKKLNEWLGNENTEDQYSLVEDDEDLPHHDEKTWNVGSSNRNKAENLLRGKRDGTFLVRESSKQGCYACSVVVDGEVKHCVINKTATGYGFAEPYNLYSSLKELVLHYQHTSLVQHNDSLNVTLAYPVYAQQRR
- PROCEDURE_DETAILS: Fluorescence polarization assay for PI3K;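 further: PI3K kinase reaction on PIP2 with ATP, 30-60 min, product sensed by GST-GRP with red probe in fluorescence polarization (mP), controls without enzyme and at zero time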
- Assay type: biochemical
- CONDITION_CONTEXT: PI3Kα; read-out: PI3Kα IC50
MEASURED_METRIC: IC50 (nM)

P = Oc1cccc(-c2nc(N3CCOCC3)c3cnn(CC(F)(F)F)c3n2)c1
Q = O=C(Cc1ccccc1)N1CCC(n2ncc3c(N4CCOCC4)nc(-c4ccc5[nH]ccc5c4)nc32)CC1 [Compound 242]
Query: When the recorded IC50 values are compared, which is smaller: that of P or that of Q ? I would appreciate it if you answered with the label of your choice.
Result: P
(P: 40 nM, Q: 692 nM)

P = O=C(Nc1ccc(-c2nc(N3CCOCC3)c3cnn(C4CCN(Cc5cccnc5)CC4)c3n2)cc1)Nc1cccs1 [Example 404]
Q = CNC(=O)Nc1ccc(-c2nc(N3CCOCC3)c3cnn(C4CCN(Cc5cncc(F)c5)CC4)c3n2)cc1 [Compound 637]
Query: Form field 'greater IC50' accepts P or Q ; which applies? // return label of chosen record
Result: Q

a = O=C(c1ccc(Cl)nc1)N1CCC(n2ncc3c(N4CCOCC4)nc(-c4ccc5[nH]ccc5c4)nc32)CC1
b = CNC(=O)Nc1ccc(-c2nc(N3CCOCC3)c3cnn(C4CCN(C(=O)c5ccc(Br)cc5)CC4)c3n2)cc1 [Example 360]
Query: Hi, I'm comparing a with b and wondering which one has the bigger number for IC50. Any idea? Please reply using the label of the selected record.
Result: a
(a: 1280 nM, b: 35 nM)

1 = O=C(NCCF)Nc1ccc(-c2nc(N3CCOCC3)c3cnn(-c4ccccc4)c3n2)cc1 [Example 294]
2 = COc1cc(-c2nc(N3CCOCC3)c3cnn(C4CCN(Cc5ccccc5)CC4)c3n2)ccc1NC(C)=O
Query: Compare reported IC50 values for 1 and 2 . Which is lower? Your answer should be the label attached to the chosen record.
Result: 1
(1: 251 nM, 2: 3930 nM)

a = O=C(NCCO)Nc1ccc(-c2nc(N3CCOCC3)c3cnn(C4CCN(C(=O)c5cccnc5)CC4)c3n2)cc1 [Example 304]
b = Oc1cccc(-c2nc(N3CCOCC3)c3cnn(C4CCN(Cc5ccc(Cl)cc5)CC4)c3n2)c1
Query: Hello, I am sorting some records. Could you say if a or b has the smaller IC50 value? Label of pick, please.
Result: b
(b: 11 nM, a: 220 nM)

P = CNC(=O)Nc1ccc(-c2nc(N3CCOCC3)c3cnn(C4CCN(C(=O)c5ccc(C)nc5)CC4)c3n2)cc1 [Compound 664]
Q = CNC(=O)Nc1ccc(-c2nc(N3CCOCC3)c3cnn(C4CCN(C(=O)c5ccccc5F)CC4)c3n2)cc1
Query: Select one. Lower IC50: P or Q Mark your selection by writing its label.
Result: Q
(Q: 80 nM, P: 118 nM)

1 = O=C(Nc1ccc(-c2nc(N3CCOCC3)c3cnn(C4CCN(Cc5ccccc5)CC4)c3n2)cc1)NN1CCCC1 [Compound 537]
2 = CNC(=O)Nc1ccc(-c2nc(N3CCOCC3)c3cnn(C4CCN(C(=O)c5ccc(Br)cc5)CC4)c3n2)cc1 [Compound 606]
Query: Hi, I'm comparing two records. Which one has the lower IC50, 1 or 2 ? State the label of the item chosen.
Result: 2
